Reference source: ChEMBL document CHEMBL1125357

- protocol notes: Retention time of the compound
- Assay type: ADME
Non-standard residues stand in square brackets, D forms with d. Residues, ends and D or L forms follow the SMILES beside them. *: point of attachment. Triazol3yl(1,2,4-5-NH2) = Nc1nc(*)n[nH]1; dPhe(4-Cl) = N[C@H](Cc1ccc(Cl)cc1)C(=O)O; d2Nal = N[C@H](Cc1ccc2ccccc2c1)C(=O)O; Lys(iPr) = CC(C)NCCCC[C@H](N)C(=O)O; dCit = NC(=O)NCCC[C@@H](N)C(=O)O; d3Pal = N[C@H](Cc1cccnc1)C(=O)O
Exercise: state measured RT for each of the molecules provided.
Numbers only, in min.

Study these solved cases before continuing.
What RT value was documented for this molecule, CC(=O)N[C@H](Cc1ccc2ccccc2c1)C(=O)N[C@H](Cc1ccc(Cl)cc1)C(=O)N[C@H](Cc1cccnc1)C(=O)N[C@@H](CO)C(=O)N[C@@H](CCCCNc1n[nH]c(N)n1)C(=O)N[C@H](CCCCNc1n[nH]c(N)n1)C(=O)N[C@@H](CC(C)C)C(=O)N[C@@H](CCCCNC(C)C)C(=O)N1CCC[C@H]1C(=O)N[C@H](C)C(N)=O (Ac-[d2Nal][dPhe(4-Cl)][d3Pal]SK(Triazol3yl(1,2,4-5-NH2))[dK](Triazol3yl(1,2,4-5-NH2))L[Lys(iPr)]P[dA]-NH2) ? 7.08

What RT value was documented for this molecule, "CC(=O)N[C@H](Cc1ccc2ccccc2c1)C(=O)N[C@H](Cc1ccc(Cl)cc1)C(=O)N[C@H](Cc1cccnc1)C(=O)N[C@@H](CO)C(=O)N[C@@H](CCCCNc1n[nH]c(N)n1)C(=O)N[C@H](CCCCNc1n[nH]c(N)n1)C(=O)N[C@@H](CC(C)C)C(=O)N[C@@H](CCCCNC(C)C)C(=O)N1CCC[C@H]1C(=O)NCC(N)=O" ? 5.53

# ---- query molecule ----
What RT value was documented for this molecule, CC(=O)N[C@H](Cc1ccc2ccccc2c1)C(=O)N[C@H](Cc1ccc(Cl)cc1)C(=O)N[C@H](Cc1cccnc1)C(=O)N[C@@H](CO)C(=O)N[C@@H](Cc1ccc(O)cc1)C(=O)N[C@H](CCCNC(N)=O)C(=O)N[C@@H](CC(C)C)C(=O)N[C@@H](CCCNC(=N)N)C(=O)N1CCC[C@H]1C(=O)N[C@H](C)C(N)=O (Ac-[d2Nal][dPhe(4-Cl)][d3Pal]SY[dCit]LRP[dA]-NH2) ? 10.1

---

- target or test system: Gonadotropin-releasing hormone receptor (Homo sapiens)
- Sequence (P30968 whole entry): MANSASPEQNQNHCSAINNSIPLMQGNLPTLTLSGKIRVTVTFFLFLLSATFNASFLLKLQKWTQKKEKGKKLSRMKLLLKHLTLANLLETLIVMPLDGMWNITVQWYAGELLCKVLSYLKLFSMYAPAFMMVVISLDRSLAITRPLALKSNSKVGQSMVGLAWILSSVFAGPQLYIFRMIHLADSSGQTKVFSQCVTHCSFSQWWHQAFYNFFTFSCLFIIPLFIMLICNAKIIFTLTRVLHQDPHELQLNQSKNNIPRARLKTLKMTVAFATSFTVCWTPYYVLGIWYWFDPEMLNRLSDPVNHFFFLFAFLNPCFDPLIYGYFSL
Non-standard residues stand in square brackets, D forms with d. Residues, ends and D or L forms follow the SMILES beside them. *: point of attachment. dNva(5-oxo-5-(4-MeOPh)) = COc1ccc(C(=O)CC[C@@H](N)C(=O)O)cc1; Triazol3yl(1,2,4-5-NH2) = Nc1nc(*)n[nH]1; dPhe(4-Cl) = N[C@H](Cc1ccc(Cl)cc1)C(=O)O; d2Nal = N[C@H](Cc1ccc2ccccc2c1)C(=O)O; Lys(iPr) = CC(C)NCCCC[C@H](N)C(=O)O; d3Pal = N[C@H](Cc1cccnc1)C(=O)O; Nicotinoyl = O=C(c1cccnc1)*; dOrn = NCCC[C@@H](N)C(=O)O; Orn = NCCC[C@H](N)C(=O)O
Exercise: state measured Kd for each of the molecules provided.
Give bare numbers, in nM.

Study these solved cases before continuing.
What Kd value was documented for this molecule, CC(=O)N[C@H](Cc1ccc2ccccc2c1)C(=O)N[C@H](Cc1ccc(Cl)cc1)C(=O)N[C@H](Cc1cccnc1)C(=O)N[C@@H](CO)C(=O)N[C@@H](CCCCNC(=O)c1cccnc1)C(=O)N[C@H](CCCCNC(=O)c1cccnc1)C(=O)N[C@@H](CC(C)C)C(=O)N[C@@H](CCCCNC(C)C)C(=O)N1CCC[C@H]1C(=O)N[C@H](C)C(N)=O (Ac-[d2Nal][dPhe(4-Cl)][d3Pal]SK(Nicotinoyl)[dK](Nicotinoyl)L[Lys(iPr)]P[dA]-NH2) ? 0.35

What Kd value was documented for this molecule, CC(=O)N[C@H](Cc1ccc2ccccc2c1)C(=O)N[C@H](Cc1ccc(Cl)cc1)C(=O)N[C@H](Cc1cccnc1)C(=O)N[C@@H](CO)C(=O)N[C@@H](CCCCNc1n[nH]c(N)n1)C(=O)N[C@H](CCCCNc1n[nH]c(N)n1)C(=O)N[C@@H](CC(C)C)C(=O)N[C@@H](CCCCNC(C)C)C(=O)N1CCC[C@H]1C(=O)N[C@H](C)C(N)=O (Ac-[d2Nal][dPhe(4-Cl)][d3Pal]SK(Triazol3yl(1,2,4-5-NH2))[dK](Triazol3yl(1,2,4-5-NH2))L[Lys(iPr)]P[dA]-NH2) ? 0.48

What Kd value was documented for this molecule, COc1ccc(C(=O)CC[C@@H](NC(=O)[C@H](CCCN=C(N)N)NC(=O)[C@H](CO)NC(=O)[C@@H](Cc2cccnc2)NC(=O)[C@@H](Cc2ccc(Cl)cc2)NC(=O)[C@@H](Cc2ccc3ccccc3c2)NC(C)=O)C(=O)N[C@@H](CC(C)C)C(=O)N[C@@H](CCCN=C(N)N)C(=O)N2CCC[C@H]2C(=O)N[C@H](C)C(N)=O)cc1 (Ac-[d2Nal][dPhe(4-Cl)][d3Pal]SR[dNva(5-oxo-5-(4-MeOPh))]LRP[dA]-NH2) ? 0.67

# ---- query molecule ----
What Kd value was documented for this molecule, CC(=O)N[C@H](Cc1ccc2ccccc2c1)C(=O)N[C@H](Cc1ccc(Cl)cc1)C(=O)N[C@H](Cc1cccnc1)C(=O)N[C@@H](CO)C(=O)N[C@@H](CCCNc1n[nH]c(N)n1)C(=O)N[C@H](CCCNc1n[nH]c(N)n1)C(=O)N[C@@H](CC(C)C)C(=O)N[C@@H](CCCCNC(C)C)C(=O)N1CCC[C@H]1C(=O)N[C@H](C)C(N)=O (Ac-[d2Nal][dPhe(4-Cl)][d3Pal]S[Orn](Triazol3yl(1,2,4-5-NH2))[dOrn](Triazol3yl(1,2,4-5-NH2))L[Lys(iPr)]P[dA]-NH2) ? 0.21

---

- protocol notes: Retention time of the compound
- Assay type: ADME
Starred links: 1 amine or outer side, 2 acyl side, 3 side chain; linkers in the order of their positions; H or OH if unused. Non-standard residues stand in square brackets, D forms with d. Residues, ends and D or L forms follow the SMILES beside them. *: point of attachment. Phe(4-NH(5-NH2triazol-3-yl)) = Nc1nc(Nc2ccc(C[C@H](N)C(=O)O)cc2)n[nH]1; X1 = Nc1nc(Nc2ccc(C[C@@H](N[*:1])C(=O)[*:2])cc2)n[nH]1; dPhe(4-Cl) = N[C@H](Cc1ccc(Cl)cc1)C(=O)O; d2Nal = N[C@H](Cc1ccc2ccccc2c1)C(=O)O; Lys(iPr) = CC(C)NCCCC[C@H](N)C(=O)O; d3Pal = N[C@H](Cc1cccnc1)C(=O)O; NMeL = CN[C@@H](CC(C)C)C(=O)O; Nicotinoyl = O=C(c1cccnc1)*
Could you please mark criterion met for values of RT below 10 min and criterion not met for values at or above it?

These recorded examples may help you get a feel for the data.
In plain terms, does CC(=O)N[C@H](Cc1ccc2ccccc2c1)C(=O)N[C@H](Cc1ccc(Cl)cc1)C(=O)N[C@H](Cc1cccnc1)C(=O)N[C@@H](CO)C(=O)N[C@@H](CCCCNC(=O)c1cccnc1)C(=O)N[C@H](CCCCNC(=O)c1cccnc1)C(=O)N[C@@H](CC(C)C)C(=O)N[C@@H](CCCCNC(C)C)C(=O)N1CCC[C@H]1C(=O)N[C@H](C)C(N)=O (Ac-[d2Nal][dPhe(4-Cl)][d3Pal]SK(Nicotinoyl)[dK](Nicotinoyl)L[Lys(iPr)]P[dA]-NH2) come in under 10 min for RT? criterion not met

In plain terms, does CC(=O)N[C@H](Cc1ccc2ccccc2c1)C(=O)N[C@H](Cc1ccc(Cl)cc1)C(=O)N[C@H](Cc1cccnc1)C(=O)N[C@@H](CO)C(=O)N[C@@H](Cc1ccc(Nc2n[nH]c(N)n2)cc1)C(=O)N[C@H](Cc1ccc(Nc2n[nH]c(N)n2)cc1)C(=O)N[C@@H](CC(C)C)C(=O)N[C@@H](CCCCNC(C)C)C(=O)N1CCC[C@H]1C(=O)N[C@H](C)C(N)=O (Ac-[d2Nal][dPhe(4-Cl)][d3Pal]S[Phe(4-NH(5-NH2triazol-3-yl))][X1]L[Lys(iPr)]P[dA]-NH2) come in under 10 min for RT? criterion met

In plain terms, does "CC(=O)N[C@H](Cc1ccc2ccccc2c1)C(=O)N[C@H](Cc1ccc(Cl)cc1)C(=O)N[C@H](Cc1cccnc1)C(=O)N[C@@H](CO)C(=O)N[C@@H](CCCNC(=N)N)C(=O)N[C@H](Cc1cccnc1)C(=O)N[C@@H](CC(C)C)C(=O)N[C@@H](CCCNC(=N)N)C(=O)N1CCC[C@H]1C(=O)N[C@H](C)C(N)=O" come in under 10 min for RT? criterion not met

In plain terms, does CC(=O)N[C@H](Cc1ccc2ccccc2c1)C(=O)N[C@H](Cc1ccc(Cl)cc1)C(=O)N[C@H](Cc1cccnc1)C(=O)N[C@@H](CO)C(=O)N[C@@H](Cc1ccc(Nc2n[nH]c(N)n2)cc1)C(=O)N[C@H](Cc1ccc(Nc2n[nH]c(N)n2)cc1)C(=O)N(C)[C@@H](CC(C)C)C(=O)N[C@@H](CCCCNC(C)C)C(=O)N1CCC[C@H]1C(=O)N[C@H](C)C(N)=O (Ac-[d2Nal][dPhe(4-Cl)][d3Pal]S[Phe(4-NH(5-NH2triazol-3-yl))][X1][NMeL][Lys(iPr)]P[dA]-NH2) come in under 10 min for RT? criterion not met

More entries:
In plain terms, does "CC(=O)N[C@H](Cc1ccc2ccccc2c1)C(=O)N[C@H](Cc1ccc(Cl)cc1)C(=O)N[C@H](Cc1cccnc1)C(=O)N[C@@H](CO)C(=O)N[C@@H](Cc1ccc(O)cc1)C(=O)N[C@H](Cc1cccnc1)C(=O)N[C@@H](CC(C)C)C(=O)N[C@@H](CCCCNC(C)C)C(=O)N1CCC[C@H]1C(=O)N[C@H](C)C(N)=O" come in under 10 min for RT? criterion not met
